Test system: UO-31 renal
protocol description: NCI-60 one-dose screen, 48 h (100 = growth as untreated, 0 = no growth, -100 = all killed)
run parameters: 10 µM unless noted
About 83,000 compounds went through this panel and 20% of them were active in at least one assay; those are over-represented in the sample as a whole.
Rule: 1.0 for growth not less than 30%, 0.0 for anything less.

* CC1=C(NCCN2CCCC2)C(=O)c2c(OCc3cccc(Cl)c3)cccc2C1=O | 1.0
* C=C1CCC2C3(C)COC(c4ccc(OC)cc4Br)OC3CCC2(C)C1/C=C/C1=CCOC1=O (configuration not stated) | 1.0
* Cc1ccc(-c2nc(/C=N/Nc3cc(C)nc4ccc(Cl)cc34)c(C)o2)cc1 | 0.0
* CC/C(Cc1ccccc1)=C(/c1ccc(O)cc1)c1ccc(OCCN2CCCC2)cc1 | 0.0
* O=C(CO[N+](=O)[O-])Nc1ccc(C(=O)/C=C/c2ccc(Cl)cc2)cc1 | 1.0
* O=C1CC(c2nc3ccccc3[nH]2)CN1C1CCCCC1 (configuration not stated) | 1.0
* COc1ccc(C2CC(=O)Nc3c2c(C)nn3-c2nc3ccccc3[nH]2)cc1 (configuration not stated) | 1.0
* C=C(CN1CCN(c2cccc(C(F)(F)F)n2)CC1)c1ccc(C(=O)Nc2ccccc2N)cc1 | 0.0
* CCN(CC)CCCC(C)N/C(=C1\C(=O)NC(=O)\C1=C(/NC(C)CCCN(CC)CC)c1cccc(OC)c1)c1cccc(OC)c1 (configuration not stated) | 0.0
* OCC1C2C=CC(C2)C1CO (configuration not stated) | 1.0
* O=C(/C=C/c1ccc(Cl)cc1)/C=C/c1cc2ccccc2[nH]c1=O | 1.0
* COc1ccc(C2Nc3ccccc3-n3cccc32)cc1 (configuration not stated) | 1.0
* CN1CCN(Cc2ccc(NC(=O)c3cncc(C#Cc4c(N)ncc5ccc(C#N)cc45)c3)cc2C(F)(F)F)CC1 | 0.0
* CCCCCCCCCc1cc(CN2CCCCC2)c(O)c(CN2CCCCC2)c1 | 1.0
* COc1ccc(C/C(C)=C(\c2ccc(Cl)cc2)c2ccc(OCCN3CCCCCC3)cc2)cc1 | 1.0
* O=C1c2cc3c(cc2-c2c1c1cc(Cl)c(Cl)cc1c(=O)n2C[C@H](O)CO)OCO3 | 0.0
* CCN1CCN(Cc2ccc(NC(=O)Nc3nc4ccc(Oc5ccnc(C(=O)NC)c5)cc4s3)cc2C(F)(F)F)CC1 | 0.0
* CN1CCN(Cc2ccc(NC(=O)c3[nH]ncc3Nc3ccnc4ccsc34)cc2)CC1 | 1.0
* COc1cc(NCCCCN=C(N)N)c2ncccc2c1 | 1.0
* O=C(O)c1c([N+](=O)[O-])cnc2ccccc12 | 1.0
* Cc1noc(C)c1-c1cc(O)cc(C(O)c2ccccc2)c1 (configuration not stated) | 0.0
* CCOC(=O)C(C#N)C1CCCCC1 (configuration not stated) | 1.0
* CCOC(=S)SCc1ccc(Cl)cc1 | 1.0
* Cc1ccc2c(c1)O/C(=C\c1cccc(OCC(=O)c3ccccc3)c1)C2=O | 1.0
* N=c1c2ccccc2nc2n1CCCCC2 | 1.0
* O=S(=O)(NCCCNc1cc(-c2cn(-c3ccccc3)nc2-c2cccc(O)c2)ccn1)c1ccccc1 | 1.0
* c1ccc(Sc2ncnc3ccccc23)cc1 | 1.0
* NS(=O)(=O)N(c1cc(C(F)(F)F)cc(C(F)(F)F)c1)C1CCN(Cc2ccc(F)cc2)CC1 | 1.0
* COc1ccc2nc3cc(Cl)ccc3c(N3CCN(c4nccc(Nc5ccccc5)n4)CC3)c2c1 | 1.0
* C=C1CC[C@@H]2[C@](C)(COC(C)=O)[C@H](OC(C)=O)CC[C@@]2(C)[C@@H]1CC(Nc1ccc(S(=O)(=O)Nc2nc(C)cc(C)n2)cc1)C1=CCOC1=O (some centres not stated) | 1.0
* O=C1O[C@H]([C@H](O)CO)C(O)=C1O | 1.0
